system: EKVX; assay: NCI tumour cell line growth inhibition, 48 h
The source made the active and inactive calls. Rule as the data show it: active = GI50 up to about 1.1 µM and inactive = higher.
value-kind: GI50

O=c1[nH]c(=O)n(COCc2ccccc2)c2ccsc12 : 22.2 µM (inactive)
Cc1cc(=O)n2nc(CSc3nnc(N)s3)sc2n1 : > 100 µM (inactive)
O=C1C2CN(Cc3ccccc3)CC1CN(CC1CC1)C2 : > 100 µM (inactive)

Query string: Which GI50 is reported for this compound? `O=S(=O)(N=[Se](=O)(c1ccccc1)c1ccccc1)c1ccccc1`
Result string: > 100 µM (inactive)

* * *

tested on: MDA-N; assay: NCI tumour cell line growth inhibition, 48 h
Active and inactive are the calls of the source. Cut-off read from the data, not from the text of the source: active = GI50 up to about 1.1 µM and inactive = higher.
Bench note: report the call from class 1 = active, class 0 = inactive

Use these answered entries as a reference point.
O=c1c(C(c2cccnc2)c2c(O)oc3cc(O)ccc3c2=O)c(O)oc2cc(O)ccc12 : class 0
Cc1c(OCc2cccc3ccccc23)ccc2c(O)cc(=S)oc12 : class 0
CSc1cc(Cl)c(C)cc1S(=O)(=O)NC(=O)NNc1cccc(C(F)(F)F)n1 : class 0

Query string: Please share the test call associated with `Cc1ccc(/N=N/C(=N/NC(=O)c2cc(Cl)ccc2C(=O)c2ccccc2)c2ccc(N(CCC#N)CCC#N)cc2C)cc1` .
Result string: class 0

Query string: Please share the test call associated with `CC[C@@]1(CCC(=O)NCCc2c[nH]c3ccccc23)CCC(=O)N2CCc3c([nH]c4ccccc34)[C@H]21` .
Result string: class 0

Query string: Please share the test call associated with COc1cc([C@@H]2c3cc4c(cc3[C@@H](OC3OC5COC(C)OC5C(O)C3O)[C@H]3COC(=O)[C@H]23)OCO4)cc(OC)c1O (some centres not stated) .
Result string: class 1

Query string: Please share the test call associated with CC1Cc2c(Br)nc(N)nc2NC1=O (configuration not stated) .
Result string: class 0

Query string: Please share the test call associated with `CC(=O)C(=Cc1ccc(C=C(C(C)=O)C(C)=O)cc1)C(C)=O` .
Result string: class 0

* * *

test system: MDA-N; assay: NCI tumour cell line growth inhibition, 48 h
Calls of active or inactive are those of the source. Rule as the data show it: active = GI50 up to about 1.1 µM and inactive = higher.
Bench note: report the call from yes (1) (active), no (0) (inactive)

Use these answered entries as a reference point.
O=c1ssc2c1Nc1c(ssc1=O)S2 : no (0)
CC(C)C1=C(Cc2ccccc2)C(=O)O/C1=C\c1cc(Cl)c(O)c(Cl)c1 : no (0)
CCNc1cc2c3c(c1)CCN3CCC2 : no (0)
COC(=O)C(Cc1ccccc1)NC(=O)C(CCCNC(=N)N)NC(=O)OCc1ccccc1 (configuration not stated) : no (0)
NNC(=O)Cc1cccnc1 : no (0)
CC(=O)OC12c3ccccc3C(c3ccccc31)C1C(=O)N(Nc3ccccc3)C(=O)C12 (configuration not stated) : no (0)

Query string: Please share the test call associated with `COc1ccccc1NCc1cccc2c(=O)c3ccc(Cl)cc3oc12` .
Result string: no (0)

* * *

system: HCT-15
molecules and their reported GI50

CCCNC(=S)N/C=C1/C(=O)C=C(C)OC1=O : > 100 µM

Query string: Which GI50 is reported for this molecule? `COC(=O)[C@H]1COC(=S)N1C(=O)[C@@H](C)[C@H](O)C(C)C`
Result string: > 100 µM

Query string: Which GI50 is reported for this molecule? `O=C(c1cccs1)N1CCc2ccccc2C1`
Result string: > 100 µM

Query string: Which GI50 is reported for this molecule? Cc1c(Cl)ccc2c1NC(=O)C2(O)CC(=O)c1ccc(Cl)cc1Cl (stereo unspecified)
Result string: > 50 µM

Query string: Which GI50 is reported for this molecule? C/C1=C/C2=CC(C)C[C@@H]2C(=O)[C@]2(C)C(=O)CC(C)(C)[C@H]2CC1=O (stereo partly specified)
Result string: > 50 µM

Query string: Which GI50 is reported for this molecule? CCC1C(=O)OCc2c1cc1n(c2=O)Cc2ccccc2-1 (stereo unspecified)
Result string: > 100 µM

Query string: Which GI50 is reported for this molecule? `O=Cn1c2ccccc2c2ccccc21`
Result string: > 100 µM

Query string: Which GI50 is reported for this molecule? CC(=O)OC12c3ccccc3C(c3ccccc31)C1C(=O)N(Nc3ccccc3)C(=O)C12 (stereo unspecified)
Result string: > 100 µM

Query string: Which GI50 is reported for this molecule? `O=c1ccc2c(Cl)sc(Cl)c2[nH]1`
Result string: > 100 µM

Query string: Which GI50 is reported for this molecule? COC(=O)C12OCC34C(CC5C(C)=C(O)C(=O)CC5(C)C3C(O)C1O)OC(=O)C(OC(=O)C=C(C)C)C24 (stereo unspecified)
Result string: > 500 µM

Query string: Which GI50 is reported for this molecule? C/C(=C\C(C)COCc1ccccc1)[C@H](COCc1ccccc1)OCc1ccccc1 (stereo partly specified)
Result string: > 100 µM

* * *

tested on: IGROV-1; assay: NCI tumour cell line growth inhibition, 48 h
The source made the active and inactive calls. Rule as the data show it: active = GI50 up to about 1.1 µM and inactive = higher.
value-kind: GI50

CCCCCCCCCCCCCCCCNC(=O)/C(O)=C/C(=O)c1ccc(C)cc1 : > 10 µM (inactive)
O=C1OCc2nc3c(c(-c4ccccc4C(F)(F)F)c21)C(=O)OC3 : > 100 µM (inactive)
CC(C)N(C(=O)C12C3C4C5(C#N)C3C1(C#N)C5C42I)C(C)C (stereo unspecified) : > 100 µM (inactive)
COC(=O)/C=C/C1(O)C=CC(=O)C=C1 : 2.69 µM (inactive)
Cc1ccc(/N=N/C(=N/NC(=O)c2cc(Cl)ccc2C(=O)c2ccccc2)c2ccc(N(CCC#N)CCC#N)cc2C)cc1 : 7.59 µM (inactive)

Query string: Which GI50 is reported for this compound? `O=Cn1c2ccccc2c2ccccc21`
Result string: > 100 µM (inactive)

Query string: Which GI50 is reported for this compound? `O=C(OCc1ccccc1)N1CCNCCN(C(=O)OCc2ccccc2)CCNCC1`
Result string: 32.2 µM (inactive)

Query string: Which GI50 is reported for this compound? COc1ccc(C2S/C(=C\c3ccccc3)C(=O)N2NC(=O)Cc2ccccc2)cc1 (stereo unspecified)
Result string: > 100 µM (inactive)

Query string: Which GI50 is reported for this compound? `NS(=O)(=O)c1cc(S(N)(=O)=O)c(NC(=O)N(c2ccccc2)c2ccccc2)c(Cl)c1Cl`
Result string: 8.13 µM (inactive)

Query string: Which GI50 is reported for this compound? `O=C(O)CNc1ccc(Cl)c(Cl)c1`
Result string: 1.1 µM (active)

Query string: Which GI50 is reported for this compound? `COc1ccc(-n2c(=O)n(C)c(=O)n2-c2ccc(OC)cc2)cc1`
Result string: > 100 µM (inactive)

Query string: Which GI50 is reported for this compound? O=C1CCCC1CC(CN1CCOCC1)Sc1nnnn1-c1ccccc1 (stereo unspecified)
Result string: > 100 µM (inactive)

Query string: Which GI50 is reported for this compound? `Cc1nc(-n2nc(-c3ccccc3)cc2-c2ccccc2)sc1C(=O)CC(=O)C(=O)Nc1ccc(Cl)c(Cl)c1`
Result string: > 100 µM (inactive)

Query string: Which GI50 is reported for this compound? COC(=O)C(Cc1ccccc1)NC(=O)C(CCCNC(=N)N)NC(=O)OCc1ccccc1 (stereo unspecified)
Result string: > 100 µM (inactive)

Query string: Which GI50 is reported for this compound? `O[C@@H]1[C@H](OC2c3ccccc3-c3ccccc32)[C@H](OCc2ccccc2)[C@@H]2OC[C@H]1O2`
Result string: > 100 µM (inactive)

Query string: Which GI50 is reported for this compound? C=C(CCOC)CCC1CCCCC(CN(C)C)C1=O (stereo unspecified)
Result string: > 100 µM (inactive)

* * *

tested on: HCT-116; assay: NCI tumour cell line growth inhibition, 48 h
Activity calls are given as the source filed them. Cut-off read from the data, not from the text of the source: active = GI50 up to about 1.1 µM and inactive = higher.
value-kind: GI50

// below: answered molecules
O=C(CC1OC(O)C(Cl)=C1Cl)c1cccnc1 (configuration not stated) : > 39.8 µM (inactive)
COc1ccc(NC2Oc3cc4c(cc3C(c3cc(OC)c(OC)c(OC)c3)C2C)OCO4)cc1 (configuration not stated) : 0.364 µM (active)
CCOC(=O)Nn1c(C)nnc1-c1ccccc1 : > 100 µM (inactive)
[O-][S+]1C(=c2ccc(=C3Sc4ccccc4S3)cc2)Sc2ccccc21 (configuration not stated) : 25.1 µM (inactive)
COc1ccccc1C1C(C(=O)Nc2ccccc2)=C(C)NC(C)=C1C(=O)Nc1ccccc1 : 65.8 µM (inactive)
O=C(CC1Sc2ccccc2NC1=O)Nc1cc(Cl)ccc1Cl (configuration not stated) : > 100 µM (inactive)

Query string: Lookup: GI50 / HCT-116 / `Cc1ccc(S(=O)(=O)N/N=C2/CC[C@H](C(C)(C)C)C[C@@H]2C)cc1`
Result string: 14.8 µM (inactive)

* * *

tested on: NCI-H460; experiment: NCI tumour cell line growth inhibition, 48 h
Active and inactive are the calls of the source. No stated cut-off is given here; in the data, active = GI50 up to about 1.1 µM and inactive = higher.
value-kind: GI50

// below: answered compounds
CC(/C=C/C(=O)c1sc(-n2nc(-c3ccccc3)cc2-c2ccccc2)nc1C)=C\c1ccccc1 : 52.7 µM (inactive)
COC(=O)[C@@H]1Cc2cc(O)c(O)cc2C2(CCN(C)CC2)O1 : > 10 µM (inactive)
CC(=O)O[C@H]1CC[C@@]2(C)C(=CC[C@@H]3[C@@H]2CC[C@]2(C)c4c(C)nn(-c5ccccc5)c4C[C@@H]32)C1 : 13.8 µM (inactive)
C=CC(Cl)(CBr)CCC(Br)C(C)(C)Cl (configuration not stated) : 14.8 µM (inactive)
COC(=O)C(=O)C(/C(=N/N)C(=O)Nc1ccccc1C(N)=O)c1nc2ccc([N+](=O)[O-])cc2nc1O (configuration not stated) : > 100 µM (inactive)

Query string: Which GI50 is reported for this compound? C[C@]12CCc3nonc3C1CC[C@@H]1C2CC[C@]2(C)NC(=O)CCC12 (some centres not stated)
Result string: > 100 µM (inactive)

Query string: Which GI50 is reported for this compound? `COc1cc2nc(-c3ccccc3F)nc(O)c2cc1OC`
Result string: 71.8 µM (inactive)
